Biological target: p52 (Homo sapiens, UniProt Q00653)
Sequence (Q00653 1-454 limits assumed): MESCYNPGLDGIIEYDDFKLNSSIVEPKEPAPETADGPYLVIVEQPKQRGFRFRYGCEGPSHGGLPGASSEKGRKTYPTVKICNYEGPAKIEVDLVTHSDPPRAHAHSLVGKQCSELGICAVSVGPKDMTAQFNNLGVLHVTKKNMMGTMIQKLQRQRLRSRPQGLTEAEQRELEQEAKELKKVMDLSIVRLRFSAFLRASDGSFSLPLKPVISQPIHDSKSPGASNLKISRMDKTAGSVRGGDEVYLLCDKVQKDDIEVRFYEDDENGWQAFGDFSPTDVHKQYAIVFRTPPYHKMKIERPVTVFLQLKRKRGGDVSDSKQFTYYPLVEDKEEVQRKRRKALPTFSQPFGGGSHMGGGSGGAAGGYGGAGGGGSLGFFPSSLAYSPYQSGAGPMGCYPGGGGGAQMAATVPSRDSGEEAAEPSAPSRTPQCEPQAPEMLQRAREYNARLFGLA
Test: TransAM NF-κB Family DNA Binding ELISA, p52
Settings: p52 binding IC50 (uM), cells without % sign
Structures can show the parent of a compound that is named as a salt.
observedProperty: IC50

compound	observedProperty	recordedValue
COc1ncccc1C(=O)NC1=CC(=O)C2OC2C1=O (racemic)	IC50	> 608 µM
COc1c(C(=O)NC2=CC(=O)C3OC3C2=O)ccc2cccnc12 (racemic)	IC50	> 514 µM
O=C(NC1=CC(=O)C2OC2C1O)c1cnc2ccc(Cl)cc2c1O (racemic)	IC50	> 481 µM
COc1c(C(=O)NC2=CC(=O)C3OC3C2O)ccc2cccnc12 (racemic) [Example 33, trifluoroacetate]	IC50	> 378 µM

Values were extracted from patent US8629164B2.
